Measurement type: melting point

CN(C)CCSc1ccc(N/C=N/O)cc1 [Comp. 445]
112 °C
CCCCCCOc1ccc(N/C=N/O)cc1 [Comp. 320]
125 to 126 °C
CN(C)CCCOc1ccc(N/C=N/O)cc1 [Comp. 400]
115 to 117 °C
CCc1cc(Br)cc(CC)c1N/C=N/O [Comp. 53]
159 to 160 °C
CCC(C)Sc1ccc(N/C=N/O)cc1 (centres unmarked) [Comp. 449]
119 to 120.5 °C

Entry under review: CN(C)CCCCCCOc1ccc(N/C=N/O)cc1 [Comp. 402] . Reported melting point?
95 to 96 °C

Record: CCCCCCCCCOc1ccc(N/C=N/O)cc1 [Comp. 323]
128 to 130 °C

Record: CCCCOCCOc1ccc(N/C=N/O)cc1 [Comp. 373]
97 to 99 °C

Record: O/N=C/Nc1ccc(OCC2CCCO2)cc1 (centres unmarked) [Comp. 420]
147 to 148.5 °C

Record: O/N=C/Nc1ccc(OCCCN2CCCCC2)cc1 [Comp. 428]
143.5 to 144.5 °C

Record: O=C([O-])CCCCCOc1ccc(N/C=N/O)cc1.[Na+] [Comp. 425]
> 300 °C

Record: CCOC(=O)c1cccc(N/C=N/O)c1 [Comp. 127]
137.5 to 138.5 °C

Record: CC(C)Oc1ccc(N/C=N/O)cc1 [Comp. 316]
144 to 146 °C

Record: O/N=C/Nc1ccc(Cl)cc1Cl [Comp. 40]
160 to 161 °C

---

# Test system: 20-HETE synthase originated from rat kidney microsome
# Assay protocol: Inhibitory effect of 20-HETE synthase originated from rat kidney microsome
# Assay type: biochemical
# Recorded conditions: concentration at which production of 20-HETE was inhibited to 50%
Strictly below 8 nM in IC50: t. Otherwise: f.

O/N=C/Nc1ccc(OCCn2cccc2)cc1
t
OCCCSc1ccc(N/C=N/O)cc1
t

Please check: IC50 for O/N=C/Nc1ccc(OCCc2ccsc2)cc1 , strictly under 8 nM or not?
t

Record: O/N=C/Nc1ccc(OCCCN2CCCCC2)cc1
f

Record: CN1CCCCC1COc1ccc(N/C=N/O)cc1 (stereo not drawn)
f

Record: N#CCCCOc1ccc(N/C=N/O)cc1
t

Record: CC(=O)OCC(COc1ccc(N/C=N/O)cc1)OC(C)=O (stereo not drawn)
t

Record: O/N=C/Nc1ccc(SCc2ccco2)cc1
t
